# method-summary: in vivo
# measurement-parameters: female, SD, rat, iv, 100 ug/kg
measured-quantity: level at 4 h (ng/mL)
Write down the numeric answer in ng/mL and omit the unit.

Per the record, CCNC(=O)[C@@H]1CCCN1C(=O)[C@H](CCCNC(=N)N)NC(=O)[C@H](CC(C)C)NC(=O)[C@@H](CC(C)C)NC(=O)[C@H](Cc1ccc(O)cc1)NC(=O)[C@H](CO)NC(=O)[C@H](Cc1c[nH]c2ccccc12)NC(=O)[C@H](Cc1c[nH]cn1)NC(=O)[C@@H]1CCC(=O)N1 has level at 4 h of 1.83

* * *

# method-summary: in vivo
# measurement-parameters: female, SD, rat, iv, 100 ug/kg
measured-quantity: level at 10 min (ng/mL)
Write down the numeric answer in ng/mL and omit the unit.

Per the record, CCNC(=O)[C@@H]1CCCN1C(=O)[C@H](CCCNC(=N)N)NC(=O)[C@H](CC(C)C)NC(=O)[C@@H](CC(C)C)NC(=O)[C@H](Cc1ccc(O)cc1)NC(=O)[C@H](CO)NC(=O)[C@H](Cc1c[nH]c2ccccc12)NC(=O)[C@H](Cc1c[nH]cn1)NC(=O)[C@@H]1CCC(=O)N1 has level at 10 min of 173
